# ASSAY EXPLANATION: equilibrium solubility of topiramate in de-ionized water and aqueous surfactant solutions
# Type: physicochemical
# EXPERIMENTAL SETUP: de-ionized water, water, thermodynamic from solid; without surfactant; 37° C.; read-out: solubility in de-ionized water
ENDPOINT NAME: solubility

Which solubility value is on record for CC1(C)O[C@@H]2[C@@H](CO[C@@]3(COS(N)(=O)=O)OC(C)(C)O[C@@H]23)O1 [topiramate] ? ~12 mg/mL

###

# ASSAY EXPLANATION: equilibrium solubility of topiramate in de-ionized water and aqueous surfactant solutions
# Format: physicochemical
# EXPERIMENTAL SETUP: de-ionized water; read-out: solubility of neat topiramate (range)
ENDPOINT NAME: solubility

Which solubility value is on record for CC1(C)O[C@@H]2[C@@H](CO[C@@]3(COS(N)(=O)=O)OC(C)(C)O[C@@H]23)O1 [topiramate] ? 9.8 to 13 mg/mL
